# ASSAY PROCEDURE: in vivo
# TEST CONTEXT: male, Sprague-Dawley, rat, in vivo, po, 80 mg/kg, MRT of HAR, rat plasma; oral HAR 80.0 mg/kg + MEM 5.0 mg/kg (HAR-H + MEM); n = 8, mean ± SD
VALUE KIND: MRT (h)
Please reply with the bare figure in h and do not write the unit itself.

### Prompt # get_value(readout='MRT', item= COc1ccc2c(c1)[nH]c1c(C)nccc12 )
### Response 2.88

* * *

# ASSAY PROCEDURE: Pharmacokinetic study in rats after oral HAR and MEM alone and in combination (plasma, UPLC-MS/MS, non-compartmental)
# TEST CONTEXT: male, Sprague-Dawley, rat, plasma, po, 5 mg/kg, Tmax of MEM, rat plasma; oral MEM 5.0 mg/kg + HAR 80.0 mg/kg (HAR-H + MEM); n = 8, mean ± SD
# Protocol: The analytes were separated on an ACQUITY UPLC BEH C18 column (2.1 mm × 50 mm, 1.7 μm, Waters, Milford, USA). […] The flow rate was 0.3 mL/min. The column and sample-tray temperature were kept at 40 °C and 4 °C, respectively. The injection volume was 5.0 μL using a partial loop with needle over fill mode. […] All standard curves and quantitative data were processed by Agilent Mass Hunter Quantitative Analysis Workstation Software. […]
VALUE KIND: Tmax (h)
Please reply with the bare figure in h and do not write the unit itself.

### Prompt # get_value(readout='Tmax', item= CC12CC3CC(C)(C1)CC(N)(C3)C2 [MEM, 1-amino-3,5-dimethyladamantane, reference compound] )
### Response 4

* * *

# ASSAY PROCEDURE: in vivo
# TEST CONTEXT: male, Sprague-Dawley, rat, in vivo, po, 20 mg/kg, MRT of HAR, rat plasma; oral HAR 20.0 mg/kg alone (HAR-L); n = 8, mean ± SD
# Protocol: The analytes were separated on an ACQUITY UPLC BEH C18 column (2.1 mm × 50 mm, 1.7 μm, Waters, Milford, USA). […] The flow rate was 0.3 mL/min. The column and sample-tray temperature were kept at 40 °C and 4 °C, respectively. The injection volume was 5.0 μL using a partial loop with needle over fill mode. […] All standard curves and quantitative data were processed by Agilent Mass Hunter Quantitative Analysis Workstation Software. […]
VALUE KIND: MRT (h)
Please reply with the bare figure in h and do not write the unit itself.

### Prompt # get_value(readout='MRT', item= COc1ccc2c(c1)[nH]c1c(C)nccc12 )
### Response 3.36

* * *

# ASSAY PROCEDURE: in vivo
# TEST CONTEXT: male, Sprague-Dawley, rat, in vivo, po, 20 mg/kg, CL/F of HAR, rat plasma; oral HAR 20.0 mg/kg + MEM 5.0 mg/kg (HAR-L + MEM); n = 8, mean ± SD
# Procedure: The analytes were separated on an ACQUITY UPLC BEH C18 column (2.1 mm × 50 mm, 1.7 μm, Waters, Milford, USA). […] The flow rate was 0.3 mL/min. The column and sample-tray temperature were kept at 40 °C and 4 °C, respectively. The injection volume was 5.0 μL using a partial loop with needle over fill mode. […] All standard curves and quantitative data were processed by Agilent Mass Hunter Quantitative Analysis Workstation Software. […]
VALUE KIND: CL/F

### Prompt # get_value(readout='CL/F', item= COc1ccc2c(c1)[nH]c1c(C)nccc12 )
### Response 2630 mL/min/kg

* * *

# ASSAY PROCEDURE: Pharmacokinetic study in rats after oral HAR and MEM alone and in combination (plasma, UPLC-MS/MS, non-compartmental)
# TEST CONTEXT: male, Sprague-Dawley, rat, plasma, po, 5 mg/kg, AUC(0-t) of MEM, rat plasma; oral MEM 5.0 mg/kg + HAR 40.0 mg/kg (HAR-M + MEM); n = 8, mean ± SD
VALUE KIND: AUC(0-t) (ng·h/mL)
Please reply with the bare figure in ng·h/mL and do not write the unit itself.

### Prompt # get_value(readout='AUC(0-t)', item= CC12CC3CC(C)(C1)CC(N)(C3)C2 [MEM, 1-amino-3,5-dimethyladamantane, reference compound] )
### Response 472

* * *

# ASSAY PROCEDURE: in vivo
# TEST CONTEXT: male, Sprague-Dawley, rat, in vivo, po, 80 mg/kg, AUC(0-t) of HAR, rat plasma; oral HAR 80.0 mg/kg alone (HAR-H); n = 8, mean ± SD
VALUE KIND: AUC(0-t) (ng·h/mL)
Please reply with the bare figure in ng·h/mL and do not write the unit itself.

### Prompt # get_value(readout='AUC(0-t)', item= COc1ccc2c(c1)[nH]c1c(C)nccc12 )
### Response 502

* * *

# ASSAY PROCEDURE: in vivo
# TEST CONTEXT: male, Sprague-Dawley, rat, in vivo, po, 80 mg/kg, CL/F of HAR, rat plasma; oral HAR 80.0 mg/kg + MEM 5.0 mg/kg (HAR-H + MEM); n = 8, mean ± SD
VALUE KIND: CL/F (mL/min/kg)
Please reply with the bare figure in mL/min/kg and do not write the unit itself.

### Prompt # get_value(readout='CL/F', item= COc1ccc2c(c1)[nH]c1c(C)nccc12 )
### Response 1520

* * *

# ASSAY PROCEDURE: in vivo
# TEST CONTEXT: male, Sprague-Dawley, rat, in vivo, po, 40 mg/kg, AUC(0-∞) of HAR, rat plasma; oral HAR 40.0 mg/kg + MEM 5.0 mg/kg (HAR-M + MEM); n = 8, mean ± SD
VALUE KIND: AUC(0-inf) (ng·h/mL)
Please reply with the bare figure in ng·h/mL and do not write the unit itself.

### Prompt # get_value(readout='AUC(0-inf)', item= COc1ccc2c(c1)[nH]c1c(C)nccc12 )
### Response 153

* * *

# ASSAY PROCEDURE: Pharmacokinetic study in rats after oral HAR and MEM alone and in combination (plasma, UPLC-MS/MS, non-compartmental)
# TEST CONTEXT: male, Sprague-Dawley, rat, plasma, po, 5 mg/kg, AUC(0-∞) of MEM, rat plasma; oral MEM 5.0 mg/kg alone (MEM group); n = 8, mean ± SD
# Protocol: The analytes were separated on an ACQUITY UPLC BEH C18 column (2.1 mm × 50 mm, 1.7 μm, Waters, Milford, USA). […] The flow rate was 0.3 mL/min. The column and sample-tray temperature were kept at 40 °C and 4 °C, respectively. The injection volume was 5.0 μL using a partial loop with needle over fill mode. […] All standard curves and quantitative data were processed by Agilent Mass Hunter Quantitative Analysis Workstation Software. […]
VALUE KIND: AUC(0-inf) (ng·h/mL)
Please reply with the bare figure in ng·h/mL and do not write the unit itself.

### Prompt # get_value(readout='AUC(0-inf)', item= CC12CC3CC(C)(C1)CC(N)(C3)C2 [MEM, 1-amino-3,5-dimethyladamantane, reference compound] )
### Response 367

* * *

# ASSAY PROCEDURE: in vivo
# TEST CONTEXT: male, Sprague-Dawley, rat, in vivo, po, 20 mg/kg, AUC(0-∞) of HAR, rat plasma; oral HAR 20.0 mg/kg + MEM 5.0 mg/kg (HAR-L + MEM); n = 8, mean ± SD
VALUE KIND: AUC(0-inf) (ng·h/mL)
Please reply with the bare figure in ng·h/mL and do not write the unit itself.

### Prompt # get_value(readout='AUC(0-inf)', item= COc1ccc2c(c1)[nH]c1c(C)nccc12 )
### Response 158

* * *

# ASSAY PROCEDURE: Pharmacokinetic study in rats after oral HAR and MEM alone and in combination (plasma, UPLC-MS/MS, non-compartmental)
# TEST CONTEXT: male, Sprague-Dawley, rat, plasma, po, 5 mg/kg, Cmax of MEM, rat plasma; oral MEM 5.0 mg/kg + HAR 20.0 mg/kg (HAR-L + MEM); n = 8, mean ± SD
VALUE KIND: Cmax (µg/mL)
Please reply with the bare figure in µg/mL and do not write the unit itself.

### Prompt # get_value(readout='Cmax', item= CC12CC3CC(C)(C1)CC(N)(C3)C2 [MEM, 1-amino-3,5-dimethyladamantane, reference compound] )
### Response 0.0505

* * *

# ASSAY PROCEDURE: Pharmacokinetic study in rats after oral HAR and MEM alone and in combination (plasma, UPLC-MS/MS, non-compartmental)
# TEST CONTEXT: male, Sprague-Dawley, rat, plasma, po, 5 mg/kg, MRT of MEM, rat plasma; oral MEM 5.0 mg/kg + HAR 20.0 mg/kg (HAR-L + MEM); n = 8, mean ± SD
VALUE KIND: MRT (h)
Please reply with the bare figure in h and do not write the unit itself.

### Prompt # get_value(readout='MRT', item= CC12CC3CC(C)(C1)CC(N)(C3)C2 [MEM, 1-amino-3,5-dimethyladamantane, reference compound] )
### Response 7.45
